ASSAY_INFO: 28-day repeat-dose toxicity study, toxicokinetics of AMXT 1501 dicaprate
Assay type: in vivo, beagle dogs
DETAILS: both sexes, beagle, dog, plasma, po, 32 mg/kg/day, 32 mg/kg/day PO, DFMO 0, Day 1, M+F combined; read-out: AUC0-24 hr Mean

[
  {
    "COMPOUND": "CCCCCCCCCCCCCCCC(=O)NCCCC[C@@H](N)C(=O)NCCCNCCCCNCCCN [AMXT 1501 dicaprate]",
    "AUC(0-t) (ng·h/mL)": 3590
  }
]

---

ASSAY_INFO: 28-day repeat-dose toxicity study, toxicokinetics of AMXT 1501 dicaprate
Type: in vivo, beagle dogs
DETAILS: both sexes, beagle, dog, plasma, po, 16 mg/kg/day, 16 mg/kg/day PO, DFMO 200 mg/kg/day, Day 1, M+F combined; read-out: Cmax Median
MEASUREMENT_NAME: Cmax (ng/mL)

[
  {
    "MOLECULE": "CCCCCCCCCCCCCCCC(=O)NCCCC[C@@H](N)C(=O)NCCCNCCCCNCCCN [AMXT 1501 dicaprate]",
    "UNIT_ABBREVIATION": "ng/mL",
    "VALUE_MEASURED": 171
  }
]

---

ASSAY_INFO: 28-day repeat-dose toxicity study, toxicokinetics of AMXT 1501 dicaprate
Assay type: in vivo, beagle dogs
DETAILS: both sexes, beagle, dog, plasma, po, 8 mg/kg/day, 8 mg/kg/day PO, DFMO 50 mg/kg/day, Day 28, M+F combined; read-out: AUC0-24 hr Mean

[
  {
    "MOLECULE": "CCCCCCCCCCCCCCCC(=O)NCCCC[C@@H](N)C(=O)NCCCNCCCCNCCCN [AMXT 1501 dicaprate]",
    "AUC(0-t) (ng·h/mL)": 2120
  }
]

---

ASSAY_INFO: 28-day repeat-dose toxicity study, toxicokinetics of AMXT 1501 dicaprate
Type: in vivo, beagle dogs
DETAILS: both sexes, beagle, dog, plasma, po, 16 mg/kg/day, 16 mg/kg/day PO, DFMO 200 mg/kg/day, Day 1, M+F combined; read-out: AUC0-24 hr Median

[
  {
    "COMPOUND": "CCCCCCCCCCCCCCCC(=O)NCCCC[C@@H](N)C(=O)NCCCNCCCCNCCCN [AMXT 1501 dicaprate]",
    "AUC(0-t) / ng·h/mL": 2470
  }
]

---

ASSAY_INFO: 28-day repeat-dose toxicity study, toxicokinetics of AMXT 1501 dicaprate
Type: in vivo, beagle dogs
DETAILS: both sexes, beagle, dog, plasma, po, 8 mg/kg/day, 8 mg/kg/day PO, DFMO 0, Day 28, M+F combined; read-out: AUC0-∞ Median
Procedure: AMXT 1501 PK parameters were calculated for all AMXT 1501 dicaprate-dosed animals for the first dose (Day 1) and last dose (Day 28).
MEASUREMENT_NAME: AUC(0-inf) (ng·h/mL)

[
  {
    "COMPOUND": "CCCCCCCCCCCCCCCC(=O)NCCCC[C@@H](N)C(=O)NCCCNCCCCNCCCN [AMXT 1501 dicaprate]",
    "MEASUREMENT_NAME": "AUC(0-inf)",
    "UNIT_ABBREVIATION": "ng·h/mL",
    "VALUE_MEASURED": 1930
  }
]
